Each recorded value in this set is attributed to patent US6716833B2.

- study system: TNF-α converting enzyme (TACE) (Homo sapiens, UniProt P78536)
- Sequence (P78536 215-824, species assumed): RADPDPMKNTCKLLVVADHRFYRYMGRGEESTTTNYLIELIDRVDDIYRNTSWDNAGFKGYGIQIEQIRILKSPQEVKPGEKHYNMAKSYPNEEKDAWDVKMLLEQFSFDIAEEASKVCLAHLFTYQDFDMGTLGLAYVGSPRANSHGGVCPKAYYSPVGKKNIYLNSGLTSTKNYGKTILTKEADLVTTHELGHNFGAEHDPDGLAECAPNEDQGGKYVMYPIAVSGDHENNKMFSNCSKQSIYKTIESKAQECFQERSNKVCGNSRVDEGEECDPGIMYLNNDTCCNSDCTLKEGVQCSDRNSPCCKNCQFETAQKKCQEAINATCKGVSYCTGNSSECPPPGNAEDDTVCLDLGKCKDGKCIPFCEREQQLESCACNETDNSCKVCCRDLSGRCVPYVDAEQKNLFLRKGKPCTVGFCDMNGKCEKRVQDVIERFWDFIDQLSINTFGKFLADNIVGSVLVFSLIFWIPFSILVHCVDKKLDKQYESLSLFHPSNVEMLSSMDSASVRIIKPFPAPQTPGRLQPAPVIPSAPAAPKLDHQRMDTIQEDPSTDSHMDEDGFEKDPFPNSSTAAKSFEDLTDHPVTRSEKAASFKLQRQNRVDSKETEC
- experimental details: TACE inhibition (fluorescent peptidyl substrate)
- Assay type: biochemical
- condition label: Table 10; read-out: TACE IC50
metric name: pIC50
API: returns pIC50 as number; meaning -log10 of concentration in mol/L.

[in] Please indicate pIC50 recorded for CC1(C)SCCN(S(=O)(=O)c2ccc(OCC#CC#CCO)cc2)[C@H]1C(=O)NO
[out] 7.41

[in] Please indicate pIC50 recorded for CC1(C)SCCN(S(=O)(=O)c2ccc(OCC#CCO)cc2)C1C(=O)NO (centres unmarked)
[out] 7.40

[in] Please indicate pIC50 recorded for CN(CC#CCOc1ccc(S(=O)(=O)N2CCSC(C)(C)C2C(=O)NO)cc1)C(=O)OC(C)(C)C (centres unmarked)
[out] 6.95

[in] Please indicate pIC50 recorded for CC1(C)SCCN(S(=O)(=O)c2ccc(OCC#CCCO)cc2)C1C(=O)NO (centres unmarked)
[out] 7.21

[in] Please indicate pIC50 recorded for CC(C)(C)OC(=O)NCCCC#CCOc1ccc(S(=O)(=O)N2CCSC(C)(C)[C@@H]2C(=O)NO)cc1
[out] 6.82

[in] Please indicate pIC50 recorded for C#CC#CCOc1ccc(S(=O)(=O)N2CCSC(C)(C)[C@@H]2C(=O)NO)cc1
[out] 7.38

[in] Please indicate pIC50 recorded for CC(=O)OCC#CCOc1ccc(S(=O)(=O)N2CCSC(C)(C)[C@@H]2C(=O)NO)cc1
[out] 7.35

[in] Please indicate pIC50 recorded for CC1(C)SCCN(S(=O)(=O)c2ccc(OCC#CCCCCN)cc2)[C@H]1C(=O)NO
[out] 7.40

----------
- study system: MMP-13 (Homo sapiens)
- experimental details: MMP-13 inhibition (thiopeptide or fluorescent peptide substrate)
- Assay type: biochemical
- condition label: read-out: MMP-13 IC50
Structures can show the parent of a compound that is named as a salt.
Can you tell me IC50 for the items I'm about to list?
Write down the numeric answer in nM and omit the unit.

[in] Please indicate IC50 recorded for CC#CCOc1ccc(S(=O)(=O)N(CCCc2ccccc2)C(C(=O)NO)C(C)C)cc1 (centres unmarked)
[out] 303

[in] Please indicate IC50 recorded for CC#CCOc1ccc(S(=O)(=O)N2CCNCC2C(=O)NO)cc1 (centres unmarked)
[out] 7.6

[in] Please indicate IC50 recorded for C#CCOc1ccc(C(NS(=O)(=O)c2ccc(OCC#CC)cc2)C(=O)NO)cc1 (centres unmarked)
[out] 57

[in] Please indicate IC50 recorded for CC#CCOc1ccc(S(=O)(=O)N2CCN(C(=O)CC)CC2C(=O)NO)cc1 (centres unmarked)
[out] 230

[in] Please indicate IC50 recorded for CC#CCOc1ccc(S(=O)(=O)N(CCC)C(C(=O)NO)C(C)C)cc1 (centres unmarked)
[out] 153

[in] Please indicate IC50 recorded for CC#CCOc1ccc(S(=O)(=O)NC(C(=O)NO)c2ccc(OCCN3CCCC3)cc2)cc1 (centres unmarked)
[out] 146

[in] Please indicate IC50 recorded for CC#CCOc1ccc(S(=O)(=O)NC2(C(=O)NO)CCCC2)cc1
[out] 1270

[in] Please indicate IC50 recorded for CC#CCOc1ccc(S(=O)(=O)N(CCN2CCOCC2)C(C(=O)NO)C(C)C)cc1 (centres unmarked)
[out] 89

[in] Please indicate IC50 recorded for CC#CCOc1ccc(S(=O)(=O)N(CCCCN(CC)CC)C(C(=O)NO)C(C)C)cc1 (centres unmarked)
[out] 114

[in] Please indicate IC50 recorded for CC#CCOc1ccc(S(=O)(=O)N(C)C(C(=O)NO)c2ccc(OC)cc2)cc1 (centres unmarked)
[out] 14

[in] Please indicate IC50 recorded for CC#CCOc1ccc(S(=O)(=O)N2CCN(C(=O)c3ccccc3)CCC2C(=O)NO)cc1 (centres unmarked)
[out] 4

[in] Please indicate IC50 recorded for CC#CCOc1ccc(S(=O)(=O)N(C)C(C(=O)NO)C(C)(C)SC)cc1 (centres unmarked)
[out] 4.6

[in] Please indicate IC50 recorded for CC#CCOc1ccc(S(=O)(=O)NC(C(=O)NO)C(C)(C)SCC(=O)O)cc1 (centres unmarked) [Example 166, Acetic Acid, Sodium Salt]
[out] 241

[in] Please indicate IC50 recorded for CC#CCOc1ccc(S(=O)(=O)N2CCN(C(=O)N(CC)CC)CC2C(=O)NO)cc1 (centres unmarked)
[out] 97

[in] Please indicate IC50 recorded for CC#CCOc1ccc(S(=O)(=O)N(CC#CCN2CCN(C)CC2)C(C(=O)NO)C(C)C)cc1 (centres unmarked)
[out] 151

[in] Please indicate IC50 recorded for CC#CCOc1ccc(S(=O)(=O)N(C)[C@@H](C(=O)NO)C2CCC(N(CC)CC)CC2)cc1 (some centres unmarked)
[out] 212

[in] Please indicate IC50 recorded for CC#CCOc1ccc(S(=O)(=O)N2CCN(C(=O)c3cccs3)CC2C(=O)NO)cc1 (centres unmarked)
[out] 119
